System: SIRPα signalling induced by Raji cells
assay.overview: Assay B: SIRPα signalling assay using Raji cells
Type: cell-based, human
condition: Homo sapiens, prior art compounds, Table 5, read-out: Inhibition of SIRPα signalling induced by Raji cells: IC50
value.type: IC50 (nM)

I = Cn1cnnc1C1CCN(c2c(C#N)cccc2-c2cncc(-n3cccn3)c2)CC1 [compound 6, reference compound]
II = COCCOc1ncc(-c2cccc(C#N)c2N2CCC(c3nncn3C)CC2)cn1 [compound 3, reference compound]
Which entry shows the lesser value of IC50 here, I or II ? Answer by quoting the chosen item's label.
I
(I: 9 nM, II: 2740 nM)

###

assay.overview: Assay C: permeability in CACO-2 cells
Format: in vitro ADME
condition: human, pH 7.2; Caco-2, apical to basolateral; compounds of the invention, Table 7
value.type: Papp A→B (nm/s)

Examples with their reported Papp A→B follow.
CC#Cc1cncc(-c2cccc(C#N)c2N2CCC(c3nncn3C)CC2)c1
250
Cn1cnnc1C1CCN(c2c(C#N)cccc2-c2cnc3nonc3c2)CC1
15
Cc1cc(-c2cccc(C#N)c2N2CCC(F)(c3nncn3C)CC2)cnc1F
410
Cn1cnnc1C1(F)CCN(c2c(C#N)cccc2-c2cnn3nc(-c4cccc(Cl)c4)ccc23)CC1
400
Cn1cnnc1C1(F)CCN(c2c(C#N)cccc2-c2cnc3nn(C(F)(F)F)cc3c2)CC1
120

a = COC(=O)c1cncc(-c2cccc(C#N)c2N2CCC(c3nncn3C)CC2)c1
b = Cn1cnnc1C1CCN(c2c(C#N)cccc2-c2cnn3nc(-c4cccc(Cl)c4)ccc23)CC1
Which entry shows the lesser value of Papp A→B here, a or b ? Answer by quoting the chosen item's label.
a
(a: 44 nm/s, b: 390 nm/s)

###

Tested on: Caco-2 cells
assay.overview: Assay C: permeability in CACO-2 cells
Assay type: in vitro ADME
condition: Caco-2; prior art compounds, Table 8
value.type: efflux ratio

Examples with their reported efflux ratio follow.
Nc1nnc(C2CCN(c3ncccc3-c3ccc(F)nc3)CC2)s1 [compound 1095, reference compound]
1.0
Nc1ncc(C2CCN(c3ncccc3-c3ccc(F)nc3)CC2)s1 [compound 1094, reference compound]
0.5

a = Cn1cnnc1C1CCN(c2c(C#N)cccc2-c2cncc(-n3cccn3)c2)CC1 [compound 6, reference compound]
b = COCCOc1ncc(-c2cccc(C#N)c2N2CCC(c3nncn3C)CC2)cn1 [compound 3, reference compound]
Return label of the item with the larger efflux ratio. Candidates: a , b . Answer by quoting the chosen item's label.
a

###

test.system: QPCTL (Homo sapiens (Human))
Sequence (Q9NXS2 whole entry): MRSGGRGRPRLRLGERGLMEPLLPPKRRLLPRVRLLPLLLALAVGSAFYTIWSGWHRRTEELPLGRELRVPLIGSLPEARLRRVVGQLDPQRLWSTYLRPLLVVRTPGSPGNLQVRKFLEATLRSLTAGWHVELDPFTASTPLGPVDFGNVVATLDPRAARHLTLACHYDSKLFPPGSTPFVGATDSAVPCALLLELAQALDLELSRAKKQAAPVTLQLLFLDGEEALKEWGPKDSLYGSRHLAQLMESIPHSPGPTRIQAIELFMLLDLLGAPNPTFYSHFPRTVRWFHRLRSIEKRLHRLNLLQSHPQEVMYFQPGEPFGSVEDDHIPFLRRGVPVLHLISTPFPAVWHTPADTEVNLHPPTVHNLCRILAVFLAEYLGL
assay.overview: Assay A: biochemical QPCTL activity assay (MALDI-TOF MS)
condition: compounds of the invention, Table 2; read-out: Inhibition of QPCTL: IC50
pIC50: −log10 of the molar value.
value.type: pIC50

A = Cn1cnnc1C1CCN(c2c(C#N)cccc2-c2cncc(C3CC3)c2)CC1
B = COc1cc(-c2cccc(C#N)c2N2CCC(c3nncn3C)CC2)cnc1F
C = Cn1cnnc1C1CCN(c2c(C#N)cccc2-c2cncc(C3CCCCO3)c2)CC1 (centres unmarked)
D = Cn1cnnc1C1(F)CCN(c2c(C#N)cccc2-c2cnc3nn(C(C)(C)C)cc3c2)CC1
Put these in order: smallest pIC50 first, largest last. Respond with an ordered listing of the labels, as requested.
A, C, B, D

P = Cn1cnnc1C1(F)CCN(c2c(C#N)cccc2-c2cnc(F)cc2Cl)CC1
Q = COc1cc(-c2cccc(C#N)c2N2CCC(c3nncn3C)CC2)cnn1
Which entry shows the lesser value of pIC50 here, P or Q ? Answer by quoting the chosen item's label.
Q

a = Cn1cnnc1C1CCN(c2c(C#N)cccc2-c2cnc3nc(-c4cccc(Cl)c4)ccn23)CC1
b = Cn1nc2cc(-c3cccc(C#N)c3N3CCC(c4nncn4C)CC3)cnc2n1
Return label of the item with the larger pIC50. Candidates: a , b . Answer by quoting the chosen item's label.
a

###

test.system: QPCT (Homo sapiens (Human))
Sequence (Q16769 29-361): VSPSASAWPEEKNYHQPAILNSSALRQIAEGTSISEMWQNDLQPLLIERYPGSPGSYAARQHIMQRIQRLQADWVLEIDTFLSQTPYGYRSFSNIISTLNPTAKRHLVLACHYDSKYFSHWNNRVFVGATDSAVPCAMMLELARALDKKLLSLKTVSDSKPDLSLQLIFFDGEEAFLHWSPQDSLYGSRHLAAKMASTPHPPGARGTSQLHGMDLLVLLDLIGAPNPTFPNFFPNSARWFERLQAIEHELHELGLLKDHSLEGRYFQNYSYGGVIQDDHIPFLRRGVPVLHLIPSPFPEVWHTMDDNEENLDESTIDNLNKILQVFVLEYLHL
assay.overview: Assay A: biochemical QPCT activity assay (MALDI-TOF MS)
condition: compounds of the invention, Table 2; read-out: Inhibition of QPCT: IC50
value.type: IC50 (nM)

Examples with their reported IC50 follow.
Cn1cnnc1C1(F)CCN(c2c(C#N)cccc2-c2cnc3nc(C(C)(C)C)cn3c2)CC1
1
Cn1cnnc1C1(F)CCN(c2c(C#N)cccc2-c2cnc3nc(C(C)(C)C)nn3c2)CC1
1
Cn1cnnc1C1(F)CCN(c2c(C#N)cccc2-c2cnc3nn(C(C)(C)C)cc3c2)CC1
1
Cn1cnnc1C1(F)CCN(c2c(C#N)cccc2-c2cnc(F)cc2Cl)CC1
4
COc1cc(-c2cccc(C#N)c2N2CCC(c3nncn3C)CC2)cnn1
22

A = Cn1ccnc1-c1cncc(-c2cccc(C#N)c2N2CCC(c3nncn3C)CC2)c1
B = Cn1cnnc1C1CCN(c2c(C#N)cccc2-c2cccnc2)CC1
C = Cn1cnnc1C1(F)CCN(c2c(C#N)cccc2-c2cnc3nc(-c4cccc(Cl)c4)ccn23)CC1
D = Cn1cnnc1C1(F)CCN(c2c(C#N)cccc2-c2cnc(O)nc2)CC1
E = CNC(=O)c1cncc(-c2cccc(C#N)c2N2CCC(c3nncn3C)CC2)c1
Rank items: key IC50, increasing. Respond with an ordered listing of the labels, as requested.
D, A, C, E, B

I = Cn1cnnc1C1(F)CCN(c2c(C#N)cccc2-c2ccc(F)nc2)CC1
II = Cn1cnnc1C1CCN(c2c(C#N)cccc2-c2cncc3cnn(Cc4ccccc4)c23)CC1
Return label of the item with the larger IC50. Candidates: I , II . Answer by quoting the chosen item's label.
II

A = Cn1cnnc1C1(F)CCN(c2c(C#N)cccc2-c2ccnnc2)CC1
B = Cn1cnnc1C1(F)CCN(c2c(C#N)cccc2-c2cnc3nn(C(F)(F)F)cc3c2)CC1
C = CC#Cc1cncc(-c2cccc(C#N)c2N2CCC(c3nncn3C)CC2)c1
D = Cn1cnnc1C1CCN(c2c(C#N)cccc2-c2cncnc2)CC1
Rank items: key IC50, increasing. Respond with an ordered listing of the labels, as requested.
B, A, D, C
(B: 1 nM, A: 3 nM, D: 52 nM, C: 75 nM)

###

test.system: UniProt Q16769
assay.overview: Assay A: biochemical QPCT activity assay (MALDI-TOF MS)
condition: prior art compounds, Table 3; read-out: Inhibition of QPCT: IC50
value.type: IC50 (nM)

Nc1ncc(C2CCN(c3ncccc3-c3ccc(F)nc3)CC2)s1 [compound 1094, reference compound]
1710

A = Nc1nnc(C2CCN(c3ncccc3-c3ccc(F)nc3)CC2)s1 [compound 1095, reference compound]
B = Cn1cnnc1C1CCN(S(=O)(=O)c2cccc(Nc3ccc(OCc4ccccc4)nc3)c2)CC1 [compound 23, reference compound]
C = Cn1cnnc1C1CCN(c2ncccc2-c2cccnc2)CC1 [SEN180, reference compound]
Rank items: key IC50, increasing. Respond with an ordered listing of the labels, as requested.
C, A, B

###

assay.overview: Assay C: permeability in CACO-2 cells
Assay type: in vitro ADME
condition: human, pH 7.2; Caco-2; compounds of the invention, Table 7
value.type: efflux ratio

Examples with their reported efflux ratio follow.
Cn1cnnc1C1(F)CCN(c2c(C#N)cccc2-c2cnc(=O)n(Cc3ccccc3)c2)CC1 [compound 59]
34.1
Cn1cnnc1C1(F)CCN(c2c(C#N)cccc2-c2cnn3nc(-c4cccc(Cl)c4)ccc23)CC1 [compound 79]
0.7
Cn1cnnc1C1(F)CCN(c2c(C#N)cccc2-c2ccc(F)nc2)CC1 [compound 56]
0.7
Cn1cnnc1C1(F)CCN(c2c(C#N)cccc2-c2cnc(O)nc2)CC1 [compound 54]
11.1
Cn1cnnc1C1(F)CCN(c2c(C#N)cccc2-c2cnc(F)cc2Cl)CC1 [compound 85]
1.8
Cn1cnnc1C1CCN(c2c(C#N)cccc2-c2cnc(F)c(OC(F)(F)F)c2)CC1 [compound 31]
2.2

A = Cn1cnnc1C1CCN(c2c(C#N)cccc2-c2cnc(F)c(F)c2)CC1 [compound 20]
B = Cn1cnnc1C1CCN(c2c(C#N)cccc2-c2cnn3nc(-c4cccc(Cl)c4)ccc23)CC1 [compound 81]
C = Cn1cnnc1C1CCN(c2c(C#N)cccc2-c2cncnc2)CC1 [compound 13]
D = CC(C)Oc1cc(-c2cccc(C#N)c2N2CCC(c3nncn3C)CC2)cnc1F [compound 19]
Rank items: key efflux ratio, increasing. Respond with an ordered listing of the labels, as requested.
B, D, A, C
(B: 0.7, D: 2, A: 3, C: 11.9)

P = Cn1cnnc1C1CCN(c2c(C#N)cccc2-c2cnc(F)c(OCc3ccccc3)c2)CC1 [compound 35]
Q = Cc1cc(F)ncc1-c1cccc(C#N)c1N1CCC(c2nncn2C)CC1 [compound 4]
R = Cn1cnnc1C1CCN(c2c(C#N)cccc2-c2cnn3ncccc23)CC1 [compound 57]
S = Cn1cnnc1C1CCN(c2c(C#N)cccc2-c2cncc(-c3ncco3)c2)CC1 [compound 29]
Place the items in sequence of falling efflux ratio. Respond with an ordered listing of the labels, as requested.
S, R, Q, P

P = Cn1cnnc1C1(F)CCN(c2c(C#N)cccc2-c2cnn3ncccc23)CC1 [compound 70]
Q = Cn1cnnc1C1CCN(c2c(C#N)cccc2-c2cncc(C3CC3)c2)CC1 [compound 15]
Return label of the item with the larger efflux ratio. Candidates: P , Q . Answer by quoting the chosen item's label.
Q
(Q: 8.7, P: 2.4)

Measured values drawn from patent US20240246981A1 for this set.
